Molecular target: IKKε (Homo sapiens)
Construct: His-tag; made in house; host or cells: Sf9 insect cells
Sequence (Q14164 1-716): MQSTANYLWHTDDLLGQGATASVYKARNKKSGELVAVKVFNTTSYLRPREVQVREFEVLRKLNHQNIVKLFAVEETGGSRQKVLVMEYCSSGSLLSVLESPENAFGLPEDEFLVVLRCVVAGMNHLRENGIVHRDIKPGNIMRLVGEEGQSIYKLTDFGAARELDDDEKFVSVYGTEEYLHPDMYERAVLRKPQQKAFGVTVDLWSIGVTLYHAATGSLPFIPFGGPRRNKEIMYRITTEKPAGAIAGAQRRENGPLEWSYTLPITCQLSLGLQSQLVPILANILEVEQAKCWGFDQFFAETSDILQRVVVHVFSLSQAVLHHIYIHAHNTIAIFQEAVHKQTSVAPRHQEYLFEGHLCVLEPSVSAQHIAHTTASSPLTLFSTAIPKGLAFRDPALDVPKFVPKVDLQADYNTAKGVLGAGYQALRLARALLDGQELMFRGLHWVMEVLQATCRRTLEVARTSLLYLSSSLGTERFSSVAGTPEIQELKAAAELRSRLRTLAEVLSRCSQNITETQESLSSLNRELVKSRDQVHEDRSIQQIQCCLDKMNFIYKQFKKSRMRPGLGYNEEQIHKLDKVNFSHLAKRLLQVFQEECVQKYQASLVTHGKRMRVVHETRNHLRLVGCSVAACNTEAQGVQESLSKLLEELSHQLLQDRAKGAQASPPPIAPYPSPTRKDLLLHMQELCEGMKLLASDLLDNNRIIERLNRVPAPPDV
Assay: In-vitro IKKε kinase assay ([γ33]ATP filter-plate)
Format: biochemical
Conditions: text bins; read-out: IC50 for inhibition of the kinase activity of IKKε
Experimental: IKKε enzyme was produced as a His-tag fusion in Sf9 cells and used at a final concentration of […]. TBK1 enzyme was produced as a His-tag fusion in Sf9 cells and used at a final concentration of 0.1 μg/ml. […] After air drying, scintillant (PerkinElmer, Waltham, Mass.) was added and the plates were read on a PerkinElmer TopCount NXT instrument. […]
pIC50: −log10 of the molar value.
pIC50: recorded values
assayEndpoint: pIC50

1) COc1cc(Nc2nccc(-c3ccc(NC(=O)C4CC4)c(C#N)c3)n2)ccc1CN1CC(OC)C1
7.30 to 8.30
2) N#Cc1cc(-c2ccnc(Nc3ccc(Cn4cnnn4)cc3)n2)ccc1OC1CCOCC1
> 8.30
3) N#Cc1cccc(-c2ccnc(Nc3ccc4c(c3)CCC4)n2)c1
6.30 to 7.30
4) Cc1ccc(-c2ccnc(Nc3ccc(N4CCOCC4)cc3)n2)cc1C#N
7.30 to 8.30
